Let's go through some IC50 measurements on Full-length USP19 (Homo sapiens) together.
Sequence (O94966 whole entry): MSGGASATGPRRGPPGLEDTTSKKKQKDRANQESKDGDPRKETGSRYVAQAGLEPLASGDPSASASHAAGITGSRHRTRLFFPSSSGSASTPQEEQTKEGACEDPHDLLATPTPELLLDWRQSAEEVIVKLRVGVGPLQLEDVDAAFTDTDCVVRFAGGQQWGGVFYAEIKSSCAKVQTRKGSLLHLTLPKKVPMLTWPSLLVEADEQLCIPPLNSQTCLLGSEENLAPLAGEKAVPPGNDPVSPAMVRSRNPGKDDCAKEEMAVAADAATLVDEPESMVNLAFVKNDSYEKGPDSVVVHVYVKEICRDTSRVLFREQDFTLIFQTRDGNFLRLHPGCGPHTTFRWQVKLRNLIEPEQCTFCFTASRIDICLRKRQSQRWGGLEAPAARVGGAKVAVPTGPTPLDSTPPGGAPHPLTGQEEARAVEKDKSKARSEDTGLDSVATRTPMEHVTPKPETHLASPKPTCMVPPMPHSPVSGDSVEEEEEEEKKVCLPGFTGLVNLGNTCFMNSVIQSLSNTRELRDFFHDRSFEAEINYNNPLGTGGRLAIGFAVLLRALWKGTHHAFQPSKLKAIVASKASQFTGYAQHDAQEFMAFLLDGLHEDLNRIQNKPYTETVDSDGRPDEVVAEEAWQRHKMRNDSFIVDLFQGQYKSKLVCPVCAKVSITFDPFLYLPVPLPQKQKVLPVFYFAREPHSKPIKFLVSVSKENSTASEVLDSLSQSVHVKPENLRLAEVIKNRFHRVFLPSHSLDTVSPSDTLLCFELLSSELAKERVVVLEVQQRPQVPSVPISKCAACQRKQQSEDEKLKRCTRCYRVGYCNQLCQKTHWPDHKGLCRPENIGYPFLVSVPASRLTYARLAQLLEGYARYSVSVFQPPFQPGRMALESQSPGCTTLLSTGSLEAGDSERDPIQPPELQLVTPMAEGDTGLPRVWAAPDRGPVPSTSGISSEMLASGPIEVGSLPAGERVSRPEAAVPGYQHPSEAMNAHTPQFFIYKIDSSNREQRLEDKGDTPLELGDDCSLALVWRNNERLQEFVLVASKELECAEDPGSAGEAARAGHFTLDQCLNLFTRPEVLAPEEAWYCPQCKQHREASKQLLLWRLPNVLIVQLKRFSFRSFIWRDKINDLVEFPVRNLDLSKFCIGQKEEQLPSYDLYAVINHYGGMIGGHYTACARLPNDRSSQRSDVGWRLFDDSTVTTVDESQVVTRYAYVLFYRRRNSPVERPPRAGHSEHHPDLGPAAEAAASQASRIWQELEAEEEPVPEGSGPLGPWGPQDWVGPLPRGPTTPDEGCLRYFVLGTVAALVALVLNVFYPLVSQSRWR

Requested read-out IC50, target or system Full-length USP19 (Homo sapiens), entry N=S1(=O)CCN(C(=O)N2CC[C@@](O)(Cn3cnc(-c4ccccc4)cc3=O)C3(CCCC3)C2)C(c2ccccc2)C1 (stereo partly shown) [Example 334]
< 500 nM

Requested read-out IC50, target or system Full-length USP19 (Homo sapiens), entry O=C(NCc1cccnc1)N1CCC(O)(Cn2cnc(-c3ccccc3)cc2=O)C2(CCCC2)C1 (stereo not shown) [Example 199]
50000 to 250000 nM

Requested read-out IC50, target or system Full-length USP19 (Homo sapiens), entry C[C@H](CC1CCCCC1)C(=O)N1CCC(O)(CN2CCOCC2=O)C2(CCCC2)C1 (stereo partly shown) [Example 31]
< 500 nM

Requested read-out IC50, target or system Full-length USP19 (Homo sapiens), entry CN(C)c1cc(=O)n(C[C@]2(O)CCN(C(=O)N3CCNC[C@H]3c3ccccc3)CC23CCCC3)cn1 [Example 318]
< 500 nM
